- Tested on: NOMO1
- assay-info: cell viability relative to DMSO control; higher = less cytotoxic
- conditions-used: RPMI 5 mM glucose + 10% FBS; 48 h; 0.569 µM
Below is a list of entries, each paired with its recorded cell viability value.

Some solved cases for reference:
INSERT INTO measurements (chemical_structure, result) VALUES
  ('CC(C)n1nc(-c2ccc3oc(N)nc3c2)c2c(N)ncnc21', '56.8%'),
  ('CC[C@H]1/C=C\C=C/C[C@@H](C)[C@H](O)[C@@](C)(O)C(=O)[C@@H](C)[C@H](O)[C@@H](C)C(=O)[C@@H](C)[C@H](O)[C@@H](C)/C=C/C(=O)O[C@@H]2[C@H](C)[C@H](CC1)O[C@]1(CC[C@H](C)[C@H](C[C@@H](C)O)O1)[C@H]2C', '92.7%');

Next:
Ask: Look up NOMO1 data: cell viability of "O=C1C[C@@H](c2ccc(O)cc2)Oc2cc(O)cc(O)c21" , then report it.
Result: 116%

----------
- System: P12-Ichikawa
- assay-info: cell viability relative to DMSO control; higher = less cytotoxic
- conditions-used: RPMI 5 mM glucose + 10% dialyzed FBS; 48 h; 0.0632 µM
Each record here notes measured cell viability.
Don't forget the unit after the value.

Worked cases, answers included:
INSERT INTO results (molecule, result) VALUES
  ('Cc1c(Cn2c(C)nc3c(C(=O)O)cc(N4CCOCC4)cc32)cccc1C(F)(F)F', '115%'),
  ('O=C(O)c1ccc(-n2nc(-c3ccccc3O)nc2-c2ccccc2O)cc1', '95.5%'),
  ('CC(C)[C@@H](C[S+](=O)([O-])C(C)C)N1C(=O)[C@@](C)(CC(=O)O)C[C@H](c2cccc(Cl)c2)[C@H]1c1ccc(Cl)cc1', '122%');

Ask: Name the recorded cell viability of the molecule listed here: "C[C@@H]1CN[C@H]2[C@@H](C)[C@@]\3(CC[C@H]\4[C@@H]5C/C=C6/C[C@@H](O)CC[C@]6(C)[C@H]5CC4=C3C)O[C@@H]2C1"
Result: 124%

Ask: Let me know recorded cell viability for "NC(CO)(CO)CCc1ccc(Sc2cccc(OCc3ccccc3)c2)cc1Cl" , thanks.
Result: 113%

Ask: Please give measured cell viability of the following entry: C1CCC(C(CC2CCCCN2)C2CCCCC2)CC1 (centres undefined)
Result: 123%

Ask: Return reported cell viability. Input molecule: "CCNC(=O)c1cc2c(-c3cc(OCCN4CCCC4)c(Cl)cc3Cl)nc(N)nc2s1"
Result: 96%

Ask: Please report the measured cell viability for CC(=O)CC(C1=CC=CC=C1)C/2=C(O)/C3=CC=CC=C3OC2=O (centres undefined)
Result: 128%

Ask: Answer with reported cell viability of "C\C1=C\N([C@H]2C[C@H](N=[N+]=[N-])[C@@H](CO)O2)C(=O)NC1=O"
Result: 113%

Ask: Identify measured cell viability associated with "CCc1c(C(=O)C(N)=O)c2c(OCC(=O)O)cccc2n1Cc1ccccc1"
Result: 99.9%

Ask: Look up and report measured cell viability for this entry: "CCC(=O)OCC(=O)[C@@]1(OC(=O)CC)[C@@H](C)C[C@H]2[C@@H]3CCC4=CC(=O)C=C[C@]4(C)[C@@]3(F)[C@@H](O)C[C@@]21C"
Result: 90.3%

Ask: Check the records and state cell viability for CC1(C)OC2CC3C4CC(F)C/5=C/C(=O)/C=C\C5(C)C4C(O)CC3(C)[C@@]2(O1)C(=O)CO (some centres undefined)
Result: 94.4%

Ask: Query cell viability for "CCN(CC)C(=S)SSC(=S)N(CC)CC"
Result: 115%

Ask: Please report the measured cell viability for "NC(=O)c1ncn([C@@H]2O[C@H](CO)[C@@H](O)[C@H]2O)n1"
Result: 120%

----------
- Test system: SEM cells
- assay-info: AUC of viability dose-response curve (% viability x log10 dose units); higher = less sensitive
- conditions-used: RPMI 5 mM glucose + 10% FBS; 48 h
Criterion: AUC of viability dose-response curve strictly less than 400. Met: Met. Not met: Not met.

Worked examples, 6 molecules total:
INSERT INTO results (molecule, assigned_category) VALUES
  ('C\C1=C\N([C@H]2C[C@H](N=[N+]=[N-])[C@@H](CO)O2)C(=O)NC1=O', 'Not met'),
  ('Cc1nccn1CC1CCc2c(c3ccccc3n2C)C1=O (centres undefined)', 'Not met'),
  ('[NH2][Pt]([NH2])([Cl])[Cl]', 'Not met'),
  ('C[C@@]12O[C@@H](C[C@]1(O)CO)n1c3ccccc3c3c4c(c5c6ccccc6n2c5c31)CNC4=O', 'Met'),
  ('C=C1/C(=C\C=C2/CCC[C@]3(C)[C@@H]([C@H](C)/C=C/[C@H](C)C(C)C)CC[C@@H]23)C[C@@H](O)C[C@@H]1O', 'Not met'),
  ('CC1(C)C(=O)N(CCN2CCC(C(=O)c3ccc(F)cc3)CC2)c2ccccc21', 'Not met');

Ask: Check if AUC of viability dose-response curve falls below 400 for "O=C(Nc1nc2ccccc2n1CCN1CCOCC1)c1cccc([N+](=O)[O-])c1" .
Result: Not met

Ask: Given the entry "CN(C)CCc1c[nH]c2ccc(C[C@H]3COC(=O)N3)cc12" , would its reported AUC of viability dose-response curve be below 400?
Result: Met

----------
- Tested on: NOMO1
- assay-info: cell viability relative to DMSO control; higher = less cytotoxic
- conditions-used: HPLM + 10% dialyzed FBS; 48 h; 0.00234 µM
Collected cell viability values appear next to each entry.
// units = %; emit number, no label

Answered cases to consult:
INSERT INTO measurements (compound, unit, readout_number) VALUES
  ('CN1CCC(CC1)COC2=CN=C(N=C2)C3=CC(=CC=C3)CN4/N=C(\C=C/C4=O)C5=CC(=CC=C5)C#N', '%', 111),
  ('Cn1c(Nc2ccc(C(F)(F)F)cc2)nc2cc(Oc3ccnc(-c4nc(C(F)(F)F)c[nH]4)c3)ccc21', '%', 125),
  ('CC(=O)N1CCN(c2ccc(OCc3nn(C)c(C)c3-c3cccc4c(CCCOc5cccc6ccccc56)c(C(=O)O)n(Cc5cccnc5)c34)cc2)CC1', '%', 130),
  ('C[C@@H]1COCCN1C\2=C\C(=O)N\3CC[C@H](N(CC4=CN=CC(=C4)Cl)C3=N2)C(F)(F)F', '%', 95.9),
  ('O=C1Nc2ccc(Cl)cc2[C@@](C#CC2CC2)(C(F)(F)F)O1', '%', 97);

Ask: Given the compound "N[S+](=O)([O-])c1cc(Cl)c(Cl)c([S+](N)(=O)[O-])c1" , write its reported cell viability.
Result: 92.2

Ask: Specify reported cell viability for the compound shown: C1CCC(C(CC2CCCCN2)C2CCCCC2)CC1 (stereo not drawn)
Result: 111

Ask: Item COc1cc(O)c2c(c1)C1OC1C[C@H](O)[C@H](O)C(=O)/C=C\C[C@H](C)OC2=O (stereo partly drawn) : provide cell viability
Result: 118

----------
cell viability by entry:
- Tested on: SEM cells
- assay-info: cell viability relative to DMSO control; higher = less cytotoxic
- conditions-used: RPMI 5 mM glucose + 10% FBS; 48 h; 0.569 µM
Form field: result (number plus unit)

INSERT INTO assay_data (compound, result) VALUES
  ('CC(C)Oc1cc(Nc2nc(N[C@@H](C)c3ccc(F)cn3)ncc2Cl)n[nH]1', '60.3%'),
  ('O=C(CO)N1CCC(c2n[nH]c(-c3ccc(Cl)cc3)c2-c2ccncn2)CC1', '109%'),
  ('O=C(NC[C@H](O)CN1CCc2ccccc2C1)c1cc(NC2COC2)ncn1', '108%'),
  ('CC(=O)C\1=C(/C)C2=CN=C(NC3=CC=C(C=N3)N4CCNCC4)N=C2N(C5CCCC5)C1=O', '100%');

Ask: For the compound "COc1cc2c(Nc3ccc(Cl)c(Cl)c3F)ncnc2cc1OC[C@@H]1C[C@@H]2CN(C)C[C@@H]2C1" , report cell viability.
Result: 101%

Ask: Recall and state the measured cell viability for "OCc1ccc(-c2nn(Cc3ccccc3)c3ccccc23)o1" .
Result: 98.1%

Ask: Tell me its cell viability given "COC[C@@H](NC(C)=O)C(=O)NCc1ccccc1" as the entry.
Result: 99.9%

Ask: Answer with the recorded cell viability of "CC(=O)O[C@@]1(CC[C@H]2[C@@H]3\C=C(C)/C4=C/C(=O)CC[C@]4(C)[C@H]3CC[C@]12C)C(C)=O" only.
Result: 100%

Ask: Read off the recorded cell viability for "CC(=O)N1CCN(c2ccc(OCc3nn(C)c(C)c3-c3cccc4c(CCCOc5cccc6ccccc56)c(C(=O)O)n(Cc5cccnc5)c34)cc2)CC1"
Result: 108%

Ask: Supply reported cell viability belonging to this compound: CC(C)C[C@H](NC(=O)CNC(=O)c1cc(Cl)ccc1Cl)B1OC(=O)CC(CC(=O)O)(C(=O)O)O1 (stereo partly drawn)
Result: 8.91%

Ask: Item "Clc1cc(Cl)cc(CNc2ncncc2-c2ccc3c(c2)OCO3)c1" : provide cell viability
Result: 103%

Ask: Give cell viability for the following compound: "CC(=O)N1CCN(c2ccc(OC[C@H]3CO[C@](Cn4ccnc4)(c4ccc(Cl)cc4Cl)O3)cc2)CC1"
Result: 113%

Ask: Let me know recorded cell viability for "CC(C)n1nc(-c2ccc3oc(N)nc3c2)c2c(N)ncnc21" , thanks.
Result: 38.3%

Ask: Determine from records and report cell viability for "OC(=O)\C1=C\N(C2=CC=C(F)C=C2)C3=C(C=C(F)C(=C3)N4CCNCC4)C1=O"
Result: 97.2%

Ask: Return the recorded cell viability value; entry: "Oc1ccc(C2CCN(c3ccnc4ccccc34)CC2)cc1O"
Result: 96.7%

Data origin: the supplement of paper PMC11451515
